# Tested on: Kaposi's sarcoma herpesvirus LANA C-terminal domain (residues 932-1162) DNA binding
# METHOD_SUMMARY: inhibitors of KSHV C-LANA binding to DNA, primary screen, biochemical, fluorescence polarization, FAM-LBS DNA, MBP-C-LANA, single point (AID 504423);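 further: 0% = neutral control wells and 100% = 4 µM acridine orange control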
# COND: at 9 µM, stronger effect = higher value
Screen size: about 340,000 compounds; about 260 (0.076%) were called active. This excerpt belongs to a sample that is enriched for actives.

# MOLECULE, SCALE_UNIT, inhibition
measured = [
    ("O=C(c1ccc(=O)oc1)N1CCC(C(O)(c2ccccc2)c2ccccc2)CC1", "%", 1.16),
    ("CC(C)(C)NC(=O)CN1CCC(NC(=O)C23CC4CC(CC(C4)C2)C3)CC1", "%", 0.793),
    ("Cc1ccccc1OCC(=O)NNC(=O)c1cc(S(=O)(=O)N(C)C)ccc1N1CCCC1", "%", -0.594),
    ("Cc1cc(Br)ccc1NC(=O)CN(C)C(=O)CN1C(=O)NC2(CCCC2)C1=O", "%", 0.321),
    ("COc1ccccc1N1CCN(Cc2ccc(OC)c3ccccc23)CC1", "%", -3.69),
    ("CCNC(=O)COc1cc(C)c(Br)c(C)c1", "%", 0.138),
    ("C=CCN(Cc1nc(-c2cc(OC)c3c(c2)OCO3)oc1C)C1CCS(=O)(=O)C1 (stereo not drawn)", "%", -0.881),
    ("Cc1sc2ncn(CC(=O)NCCCC(=O)NCc3ccc(F)cc3)c(=O)c2c1C", "%", 0.451),
    ("Cc1ccc2c(=O)oc(N(C)C)nc2c1", "%", 0.463),
    ("Cc1ccc(OCCNC(=O)c2cccc(S(=O)(=O)N3CCN(Cc4ccccc4)CC3)c2)cc1", "%", -0.305),
    ("CCCN(C(=O)COC(=O)CNS(=O)(=O)c1ccc(NC(C)=O)cc1)C1CCS(=O)(=O)C1 (stereo not drawn)", "%", -0.76),
    ("CCCCNS(=O)(=O)c1ccc(S(=O)(=O)n2cnc3ccccc32)cc1", "%", 0.219),
    ("c1ccc(-n2cccc2)c(N2CCCCC2)c1", "%", 1.68),
    ("COc1cc(C(=O)NCc2ccc3c(c2)cc(C)n3C)cc(OC)c1OC", "%", 1.89),
    ("CCCCN(CCCC)CCCNC(=O)CN1C(=O)COc2ccc(S(=O)(=O)N3CCC(C)CC3)cc21", "%", 0.15),
    ("COc1cccc(CNC(=O)C2CCCN(c3ncnc4c3nc3n4CCCCC3)C2)c1 (stereo not drawn)", "%", 0.109),
    ("COc1cc(OC)c(NS(=O)(=O)c2cn(C)cn2)cc1Cl", "%", 0.525),
    ("Cc1cc2nc(SCCN3CCOCC3)[nH]c2cc1C", "%", -0.479),
    ("c1ccc2c(NC3C4CC5CC(C4)CC3C5)nc(N3CCOCC3)nc2c1 (stereo not drawn)", "%", 0.795),
    ("Cc1nc(C)c2c(c1C(F)(F)F)-c1ccccc1C2(F)F", "%", 1.49),
    ("Cc1cc(NC(=O)/C=C/C(=O)N(c2ccccc2C)C(C(=O)NC2CCCC2)c2ccc(F)cc2)no1 (stereo not drawn)", "%", 0.894),
    ("CCCN(CC(=O)NC(=O)NC1CCCCC1)CC(=O)Nc1cc(Cl)ccc1Cl", "%", -0.226),
    ("CCC(C)(C)NC(=O)C(c1ccccn1)N(C(=O)c1csnn1)c1ccccc1 (stereo not drawn)", "%", -0.461),
    ("COc1ccc(CN2CCN(Cc3ccc(OC)c(OC)c3OC)CC2)cc1", "%", 79),
    ("COc1ccc(C2c3ccc(O)cc3Oc3ncn(CCCO)c(=N)c32)cc1OC (stereo not drawn)", "%", 90.6),
    ("COc1ccc(C2C(C#N)=C(N)Oc3cc(N)ccc32)cc1OC (stereo not drawn)", "%", -0.0442),
    ("COc1cc(CN2CCN(Cc3ccc(C)cc3)CC2)c([N+](=O)[O-])cc1OC", "%", -0.737),
    ("Cc1cc(C)c(NC(=O)CN2CCCCCC2)c(C)c1", "%", 1.26),
    ("CCN(CC)C(=O)[C@H]1C[C@H](CC(=O)NCC23CC4CC(CC(C4)C2)C3)C(=O)N2CCc3c([nH]c4cc(CCC(=O)N(C)C)ccc34)[C@]12C", "%", -1.63),
    ("c1ccc(CSc2ncnc3c2sc2nc(N4CCOCC4)c4c(c23)CCCC4)cc1", "%", 0.637),
    ("O=c1ccc2c(-c3ccccc3S(=O)(=O)O)c3ccc(O)c(O)c3oc-2c1O", "%", 101),
    ("O=C(NC(=S)N1CCCCC1c1cccnc1)c1ccccc1 (stereo not drawn)", "%", 1.24),
    ("CCC(C)(C)c1ccc(OCC(=O)N(C)C)c(C(C)(C)CC)c1", "%", 1.97),
    ("CN(C)/C=C(/C(=O)c1ccccc1Cl)S(C)(=O)=O", "%", 0.122),
    ("O=C(CN(c1ccc2c(c1)OCCO2)S(=O)(=O)c1ccccc1)Nc1ccc2c(c1)OCO2", "%", -0.247),
    ("COc1ccc(C(=O)Nc2ccc(C(=O)NCC3CCCO3)cc2)c(OC)c1OC (stereo not drawn)", "%", 2.3),
    ("CS(=O)(=O)N1CCC(C(=O)N2CCN(c3ccccc3)CC2)CC1", "%", -0.437),
    ("COC(=O)c1c(C)oc(C)c1S(=O)(=O)Nc1ccc(C(C)C)cc1", "%", -0.597),
    ("O=C1C=C(c2cccc(Cl)c2O)C[C@@H](c2ccc(F)cc2)C1", "%", 0.749),
    ("c1ccc(CNc2ncnc3[nH]ncc23)cc1", "%", -0.81),
    ("COCCNC(=O)C1CCN(S(=O)(=O)c2ccc3c(c2)OCCO3)CC1", "%", -0.000473),
    ("CCN(CC(=O)NC(C)C)C(=O)CCNC(=O)c1ccc(Cl)cc1", "%", -0.0284),
    ("CCC1CCCCN1CCNC(=O)c1[nH]c(C)c(C(C)=O)c1C (stereo not drawn)", "%", 5.48),
]

---

# Test system: Kaposi's sarcoma herpesvirus LANA C-terminal domain (residues 932-1162) DNA binding
# METHOD_SUMMARY: inhibitors of KSHV C-LANA binding to DNA, primary screen, biochemical, fluorescence polarization, FAM-LBS DNA, MBP-C-LANA, single point (AID 504423);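 further: 0% = neutral control wells and 100% = 4 µM acridine orange control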
# COND: at 9 µM, stronger effect = higher value
About 260 (0.076%) of roughly 340,000 compounds were called active. The sample holds actives, similar compounds and a random draw of the others, so the mix is not that of the screen.
inhibition by entry:

# STRUCTURE, inhibition
measured = [
    ("CC1(C)N=C(c2ccccn2)C(C)(C)N1O", "0.432% (inactive)"),
    ("CC(C)c1ccc(C=NNc2ccc([N+](=O)[O-])cn2)cc1", "-4.43% (inactive)"),
    ("COc1ccc(-c2c(C)nn3c(N4CCC(C(=O)N5CCCCC5)CC4)cc(C)nc23)cc1OC", "-1.26% (inactive)"),
    ("Cc1cc(/C=N/Nc2ccc([N+](=O)[O-])cn2)c(C)n1-c1cccc(C(=O)O)c1", "64.5% (active)"),
    ("O=C(CN1CCN(c2ncccn2)CC1)Nc1ccccc1C(F)(F)F", "-0.265% (inactive)"),
]

---

# Test system: Kaposi's sarcoma herpesvirus LANA C-terminal domain (residues 932-1162) DNA binding
# METHOD_SUMMARY: inhibitors of KSHV C-LANA binding to DNA, primary screen, biochemical, fluorescence polarization, FAM-LBS DNA, MBP-C-LANA, single point (AID 504423);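 further: 0% = neutral control wells and 100% = 4 µM acridine orange control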
# COND: at 9 µM
Screen size: about 340,000 compounds; about 260 (0.076%) were called active.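 How the source made its calls: active means highest replicate inhibition at or above 60% at 9 µM, even if other replicates fall short; inactive means all replicates below 60% inhibition.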 For the sample, actives were picked, then their nearest neighbours and some compounds at random.
Possible outcomes: active, inactive

# MOLECULE, DISCRETE_LABEL
records = [
    ("COCCCNC(=O)C1CC(=O)N(c2ccc(C)cc2)C1 (stereo not given)", "inactive"),
    ("CCCn1nc(C(=O)OCc2nc(N)nc(Nc3ccccc3C)n2)c2ccccc2c1=O", "inactive"),
    ("Cc1ccc(S(=O)(=O)n2oc(=O)c(C3CCCCC3)c2N)cc1", "inactive"),
    ("COC(=O)Cc1c(-c2[nH]c3ccccc3c2CC(=O)OC)[nH]c2ccccc12", "inactive"),
    ("COC(=O)C[n+]1cccc2ccccc21", "active"),
    ("C[C@H](CO)N1C[C@H](C)[C@H](CN(C)C(=O)Nc2ccc(C(F)(F)F)cc2)Oc2c(NC(=O)c3ccncc3)cccc2C1=O", "inactive"),
    ("O=C(C[n+]1cc(Br)cc2ccccc21)c1ccc(F)cc1", "inactive"),
    ("COc1cccc(-c2nc3n(n2)C(c2ccccc2Cl)C(C(N)=O)=C(C)N3)c1 (stereo not given)", "inactive"),
    ("O=C(CSc1ccsc1[N+](=O)[O-])N1CCCCC1", "inactive"),
    ("O=C(Nc1ccc2sc3ccccc3c(=O)c2c1)c1ccccc1Cl", "inactive"),
]
